Overview of reported pIC50 across a group of compounds:
biological target: full length N-terminally FLAG-tagged PARP1 (Homo sapiens); assay: PARP1 biochemical DELFIA assay (auto-PARylation); set-up: recombinant full length human N-terminally FLAG-tagged PARP1; conditions: binned IC50, biochemical auto-PARylation assay
pIC50: −log10 of the molar value.
measured_parameter: pIC50

                                   compound  result
0  N#Cc1ccc(N2CCC(N3CCC(c4cc5cccc(F)c5c(=O)[nH]4)C3)CC2)c(Cl)c1 (single isomer, unassigned) [Compound 378a]  > 8.00
1  CNC(=O)c1ccc(N2CCC(N3CCC(c4cc5ccc(F)cc5c(=O)[nH]4)C3)CC2)c(C#N)n1 (single isomer, unassigned) [Compound 396a]  > 8.00
2  CNC(=O)c1ncc(N2CCC(N3CC4(c5nc6ccc(F)cc6c(=O)[nH]5)CC3C4)CC2)cc1F  > 8.00

====

target: N-terminally FLAG-tagged PARP2 (amino acids 1-583) (Homo sapiens); construct: N-terminally FLAG-tagged PARP2 (amino acids 1-583); experiment: PARP2 probe displacement HTRF assay; format: binding; settings: binned Kd, probe displacement HTRF
Sequence (Q9UGN5 whole entry, the tested form may be a part): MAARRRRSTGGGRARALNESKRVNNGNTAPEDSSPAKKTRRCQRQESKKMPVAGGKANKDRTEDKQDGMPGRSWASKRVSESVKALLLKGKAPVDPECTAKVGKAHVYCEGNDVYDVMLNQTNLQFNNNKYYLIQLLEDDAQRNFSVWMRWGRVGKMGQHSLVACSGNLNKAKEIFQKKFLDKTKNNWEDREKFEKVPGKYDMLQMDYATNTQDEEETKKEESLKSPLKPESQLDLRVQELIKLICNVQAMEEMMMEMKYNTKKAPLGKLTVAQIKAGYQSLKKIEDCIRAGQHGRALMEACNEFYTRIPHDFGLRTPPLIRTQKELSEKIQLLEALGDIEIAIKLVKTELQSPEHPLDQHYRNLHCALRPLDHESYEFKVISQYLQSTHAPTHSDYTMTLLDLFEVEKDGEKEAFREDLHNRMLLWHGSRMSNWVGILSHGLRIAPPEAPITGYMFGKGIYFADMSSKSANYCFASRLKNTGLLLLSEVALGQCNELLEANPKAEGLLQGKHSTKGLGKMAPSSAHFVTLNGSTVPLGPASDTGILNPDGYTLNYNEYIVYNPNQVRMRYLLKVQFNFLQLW
pKd: −log10 of the molar value.
Overview of reported pKd across a group of molecules:
measured_parameter: pKd

>>> print(df.to_string())
                                   molecule                              assay_system        result
0  CNC(=O)c1cc(Cl)c(N2CCC(N3CCC(c4cc5cccc(F)c5c(=O)[nH]4)C3)CC2)cn1 (racemic)  N-terminally FLAG-tagged PARP2 (amino acids 1-583) (Homo sapiens)  6.00 to 7.00
1  CNC(=O)c1ccc(N2CCC(N3CCC(c4cc5ncc(Cl)cc5c(=O)[nH]4)C3)CC2)cn1 (racemic)  N-terminally FLAG-tagged PARP2 (amino acids 1-583) (Homo sapiens)  6.00 to 7.00
2  CNC(=O)c1ccc(N2CCC(N3CCC(c4cc5c(F)cncc5c(=O)[nH]4)C3)CC2)c(F)n1 (single isomer, unassigned) [Compound 343b]  N-terminally FLAG-tagged PARP2 (amino acids 1-583) (Homo sapiens)  5.00 to 6.00
3  Cc1cnc(-c2ccc(N3CCC(N4CCC(c5nc6ccccc6c(=O)[nH]5)C4)CC3)cn2)n1C (racemic)  N-terminally FLAG-tagged PARP2 (amino acids 1-583) (Homo sapiens)  6.00 to 7.00

====

molecular target: full length N-terminally FLAG-tagged PARP1 (Homo sapiens, UniProt P09874); experiment: PARP1 biochemical DELFIA assay (auto-PARylation); parameters: recombinant full length human N-terminally FLAG-tagged PARP1; settings: binned IC50, PARP1 biochemical DELFIA assay
Sequence (P09874 whole entry): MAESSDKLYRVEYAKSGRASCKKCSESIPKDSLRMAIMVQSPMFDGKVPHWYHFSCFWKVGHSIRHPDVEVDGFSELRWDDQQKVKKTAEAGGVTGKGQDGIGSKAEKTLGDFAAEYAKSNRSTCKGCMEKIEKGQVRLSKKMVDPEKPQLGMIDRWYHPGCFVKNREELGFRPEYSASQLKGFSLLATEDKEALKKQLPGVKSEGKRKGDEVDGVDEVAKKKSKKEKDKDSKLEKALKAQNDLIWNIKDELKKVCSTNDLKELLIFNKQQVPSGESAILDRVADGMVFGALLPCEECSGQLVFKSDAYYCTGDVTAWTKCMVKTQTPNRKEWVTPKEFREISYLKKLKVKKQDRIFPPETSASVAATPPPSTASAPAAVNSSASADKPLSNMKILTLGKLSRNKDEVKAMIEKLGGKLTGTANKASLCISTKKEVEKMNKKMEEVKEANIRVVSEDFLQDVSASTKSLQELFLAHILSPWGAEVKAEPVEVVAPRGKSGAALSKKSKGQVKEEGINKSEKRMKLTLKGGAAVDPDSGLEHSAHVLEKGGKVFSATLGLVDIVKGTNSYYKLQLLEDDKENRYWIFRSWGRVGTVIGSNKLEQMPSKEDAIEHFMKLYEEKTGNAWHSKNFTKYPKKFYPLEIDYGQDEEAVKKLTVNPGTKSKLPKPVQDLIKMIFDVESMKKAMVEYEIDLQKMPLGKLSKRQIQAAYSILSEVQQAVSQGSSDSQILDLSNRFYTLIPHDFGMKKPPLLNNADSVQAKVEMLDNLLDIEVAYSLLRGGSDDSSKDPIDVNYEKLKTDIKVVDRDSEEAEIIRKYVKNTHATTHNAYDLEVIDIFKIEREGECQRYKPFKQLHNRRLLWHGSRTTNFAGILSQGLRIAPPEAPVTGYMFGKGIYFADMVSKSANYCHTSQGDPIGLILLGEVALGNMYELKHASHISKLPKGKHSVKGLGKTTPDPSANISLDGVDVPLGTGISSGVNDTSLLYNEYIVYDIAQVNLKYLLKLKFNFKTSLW
pIC50: −log10 of the molar value.
measured_parameter: pIC50

>>> df
                                    molecule        result
 0  CNC(=O)c1ccc(N2CCC(N3CCC(c4nc5sc6c(c5c(=O)[nH]4)CCC6)C3)CC2)cn1 (single isomer, unassigned) [Compound 189b]        > 8.00
 1  CNC(=O)c1ccc(N2CCC(N3CCC(c4nc5c(F)cccc5c(=O)[nH]4)C3)CC2)cn1 (single isomer, unassigned) [Compound 121a]  7.00 to 8.00
 2  CNC(=O)c1ccc(N2CCC(N3CCC(c4nc5c(c(=O)[nH]4)CCCC5)C3)CC2)cn1 (single isomer, unassigned) [Compound 155a]  7.00 to 8.00
 3  N#Cc1ccc(N2CCC(N3CCCC(c4nc5ccccc5c(=O)[nH]4)C3)CC2)nc1 (single isomer, unassigned) [Compound 74a]  6.00 to 7.00
 4  CCNC(=O)c1ccc(N2CCC(N3CCCC(c4nc5ccccc5c(=O)[nH]4)C3)CC2)cn1 (single isomer, unassigned) [Compound 122b]  7.00 to 8.00
 5  CNC(=O)c1cc(C)c(N2CCC(N3CCC(c4cc5ccncc5c(=O)[nH]4)C3)CC2)c(C)n1 (racemic)        > 8.00
 6  CNC(=O)c1ccc(N2CCC(N3CCC(c4nc5ccccc5c(=O)[nH]4)C3)CC2)c(F)n1 (racemic)        > 8.00
 7  CNC(=O)c1ccc(N2CCC(N3CCC(c4nc5ccc(F)cc5c(=O)[nH]4)C3)CC2)cn1 (single isomer, unassigned) [Compound 64b]        > 8.00
 8  CCNC(=O)c1ccc(N2CCC(N3CCC(c4nc5ccccc5c(=O)[nH]4)C3)CC2)cn1 (single isomer, unassigned) [Compound 111b]        > 8.00
 9  CCc1cnc(C2CCCN(CC3CCN(c4ccc(C(=O)NC)nc4)CC3)C2)[nH]c1=O (racemic)  6.00 to 7.00
10  CNC(=O)c1ccc(N2CCC(N3CCC(c4nc5c(c(=O)[nH]4)CCCN5)C3)CC2)cn1 (single isomer, unassigned) [Compound 214a]  7.00 to 8.00
11  O=c1[nH]c(C2CCCN(C3CCC(F)(F)CC3)C2)nc2ccccc12 (single isomer, unassigned) [Compound 3b]  6.00 to 7.00
12  O=c1[nH]c(CC2CCCN(C3CCC(F)(F)CC3)C2)nc2ccccc12 (single isomer, unassigned) [Compound 11b]  6.00 to 7.00

Origin of measurements: patent US20250152585A1
